Provide the recorded Ki for the entries that follow.
- study_target: Scytalone dehydratase (Magnaporthe oryzae (strain 70-15 / FGSC 8958) (Rice blast fungus)(Pyricularia oryzae), UniProt P56221)
- Sequence (P56221 whole entry): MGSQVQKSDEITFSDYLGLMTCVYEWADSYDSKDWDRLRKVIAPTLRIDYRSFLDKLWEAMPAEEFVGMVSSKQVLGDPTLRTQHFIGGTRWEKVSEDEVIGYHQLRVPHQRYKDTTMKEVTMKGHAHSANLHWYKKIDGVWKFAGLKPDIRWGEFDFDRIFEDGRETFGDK
- method_notes: The inhibitory activity (Ki) of the protonated compound was measured against scytalone dehydratase at pH 7.0
- Set-up: species or system Pyricularia grisea
The response must be a number in µM with no trailing unit.

What value of Ki has been reported for the following molecule? c1ccc(CCCNc2nccc3ccccc23)cc1
6.7

Give its Ki value. Item: c1ccc(CCCNc2ccnc3ccccc23)cc1
88

Record request: Ki value, item c1ccc(CCCNc2ncnc3ccccc23)cc1
1.8

Endpoint output: Ki of O=C(NCCCc1ccccc1)c1ccccc1O . Value?
0.0073
